- Test system: CCRF-CEM leukemia
- testProtocol: NCI tumour cell line growth inhibition, 48 h
readout: TGI

-- ask TGI lookup needed for `Cc1cc(-c2nc3ccccc3s2)ccc1NC(=O)[C@H](C)N` , thanks.
-- reply 24.1 µM

-- ask // lookup TGI for COC(=O)/C=C1\CCC(C)(C(=O)NS(=O)(=O)c2ccc(C)cc2)C1(C)C (stereo not drawn)
-- reply > 100 µM

-- ask Find the recorded TGI belonging to `C/C(=N\N=C(/[Se])N1CC2CCC(CC2)C1)c1ccccn1` and report it.
-- reply 0.808 µM

---

- Test system: MOLT-4 leukemia
- testProtocol: NCI tumour cell line growth inhibition, 48 h
readout: TGI

-- ask What does the data say about its TGI? Entry: COC(=O)/C=C1\CCC(C)(C(=O)NS(=O)(=O)c2ccc(C)cc2)C1(C)C (stereo not drawn)
-- reply > 100 µM

-- ask State the recorded TGI for this entry: Cc1cc(S(=O)(=O)O)c(NC(=O)C(=O)C2C=CCS2(=O)=O)cc1Cl (stereo not drawn)
-- reply > 100 µM

-- ask Name the reported TGI value associated with the compound Cc1cccc(NC(=O)C(=O)C(C(=O)c2ccccc2F)C2OC(=O)c3ccccc32)c1Cl (stereo not drawn)
-- reply > 100 µM

---

- System: DU-145 prostate
- testProtocol: NCI tumour cell line growth inhibition, 48 h
Field: TGI. Provide a value for each of the compounds that follow.

-- ask Given the compound `COc1cccc(/C=C/c2cnc3ccccc3n2)c1OC` , what is its reported TGI?
-- reply > 100 µM

-- ask I would be grateful if you could share the reported TGI for `COC(=O)/C=C(/C(=O)OC)c1c(C)c(C)c2c(C)cc(C)cc(C)c1-2` .
-- reply > 100 µM

-- ask Please report the recorded TGI for COP(=O)(OC)C(Cc1c[nH]c2ccccc12)NC(=O)OCc1ccccc1 (stereo unspecified) .
-- reply > 100 µM

-- ask Which TGI is reported for this compound? `COc1ccc2c(c1)C(c1ccccc1Cl)=Nc1c(n[nH]c1C)N2`
-- reply > 25 µM

-- ask Bench note: what TGI did `Cc1sc(/N=C/c2c[nH]c3ccccc23)c(C#N)c1C` show?
-- reply > 100 µM

-- ask Field request: TGI | item: `Oc1ccc(SCc2cc(O)c(O)c(O)c2)cc1`
-- reply > 100 µM

---

- Test system: SR leukemia
- testProtocol: NCI tumour cell line growth inhibition, 48 h
readout: TGI

-- ask Returns the measured TGI for the input compound. Input: `CC(C)(C)C1(COC(=O)c2ccc(N)cc2)COC1`
-- reply > 100 µM

-- ask Can you share its TGI? I mean this compound: `O=[N+]([O-])c1ccc(N=Nc2c(O)c(S(=O)(=O)O)cc3cc(S(=O)(=O)O)ccc23)cc1`
-- reply > 100 µM

-- ask Can you share its TGI? I mean this compound: `O=C(O)c1cc(N=Cc2ccccc2O)cc(C(=O)O)c1`
-- reply > 100 µM

---

Kindly state TGI for each of the entries shown.
- System: SK-MEL-28 melanoma
- testProtocol: NCI tumour cell line growth inhibition, 48 h
Where a SMILES comes first, the peptide text is derived from it. The star is where a group is joined. Cbz = O=C(OCc1ccccc1)*; OBn = c1ccc(CO*)cc1

-- ask Value lookup for TGI; key = `COc1cccc(/C=N/[N-]C(N)=O)c1[O-].[Ni+2].[OH3+].c1cnc2c(c1)ccc1cccnc12`
-- reply > 100 µM

-- ask For the molecule shown here, `COC(=O)n1c(=O)n(-c2ccccc2)c(=O)n1C(=O)OC` , give the reported TGI.
-- reply > 100 µM

-- ask Value lookup for TGI; key = `Cc1cc(C)c(O)c(CN(C)Cc2cc(Cl)cc(Cl)c2O)c1`
-- reply 24 µM

-- ask Look up TGI for this molecule: CCOC(=O)CNC(=O)C(C)NC(=O)C(NC(=O)CC(c1ncc[nH]1)c1ncc[nH]1)C(C)CC (stereo unspecified)
-- reply > 100 µM

-- ask For C1OC1CO[C@@H]1CO[C@H]2[C@@H]1OC[C@H]2OCC1CO1 (stereo partly specified) , what is its reported TGI?
-- reply > 100 µM

-- ask Please give the measured TGI for this molecule: `Nc1c(C(=O)Nc2ccccc2)[n+]([O-])c2ccccc2[n+]1[O-]`
-- reply 34.9 µM

-- ask What does the data say about its TGI? Entry: Fc1ccc(C2SCc3nc4ccccc4n32)cc1 (stereo unspecified)
-- reply 76.5 µM

-- ask Any idea what TGI was measured for COC(=O)C(Cc1ccc(O)cc1)NC(=O)C(CC(=O)OCc1ccccc1)NC(=O)OCc1ccccc1 (stereo unspecified) (Cbz-Asp(OBn)-Tyr-OMe; configuration not given here) ?
-- reply 31.3 µM

-- ask Please report the recorded TGI for `O=c1cc(-c2ccccc2)[nH]n1-c1nc2ccccc2[nH]1` .
-- reply > 100 µM

-- ask Consider the molecule C/C(=N\NC(N)=S)C(CN(CC(C)C)CC(C)C)C(=O)Nc1ccc(C)cc1C (stereo unspecified) and give its measured TGI.
-- reply > 100 µM

-- ask Entry `Oc1ccc(SCc2cc(O)c(O)c(O)c2)cc1` : reported TGI = ?
-- reply > 100 µM
